Taken from PubChem BioAssay AID1159580.

Experiment: chemical genetic growth profiling, strain panel (AID 1159580);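 also: tested at 20 µM; growth read once vehicle control cultures reached saturation at 30 °C; 1 = growth at the plate median or of vehicle wells; lower values mean less growth of the strain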
Details: S. cerevisiae deletion strains, growth OD, locus YOR231W, strain MKK1, stronger effect = lower value
About 2,000 (36%) of roughly 5,500 compounds were called active. Inconclusive results (about 18%) are left out. The list shows a part of the results.
The compounds listed here are annotated with their normalized growth.
property: normalized growth

1) COc1c(-c2coc3cc4c(cc3c2=O)CC(OC(C)=O)C(C)(C)O4)ccc2c1C=CC(C)(C)O2 (centres undefined) | 0.957
2) COc1ccc2nc3ccccc3c(N)c2c1 | 0.225
3) COc1cccc2c1C(=O)c1c(O)c3c(c(O)c1C2=O)C[C@@](O)(C(C)=O)C[C@@H]3O[C@H]1C[C@H](N)[C@H](O)[C@H](C)O1 | 1.01
4) COc1cccc2c1C(=O)c1c(O)c3c(c(O)c1C2=O)C[C@@](O)(C(=O)CO)C[C@@H]3OC1C[C@H](N)[C@H](O)[C@H](C)O1 (some centres undefined) | 0.815
5) Cc1csc(NC(=O)Nc2ccc(C(F)(F)F)cc2)c1Cl | 0.762
6) C/C=C(/C)C(=O)O[C@H]1CC[C@@]2(C)[C@@H]3CC[C@H]4[C@]5(O)C[C@H](O)[C@@]6(O)[C@@H](CN7C[C@@H](C)CC[C@H]7[C@@]6(C)O)[C@]5(O)C[C@@]42O[C@]13O | 1.01
7) Cc1csc(NC(=O)Nc2ccc(C(F)(F)F)cc2)c1 | 0.864
8) Nc1c2ccccc2nc2ccccc12 | 0.67
9) COc1cccc2c1C(=O)c1c(O)c3c(c(O)c1C2=O)C[C@@](O)(C(=O)CO)C[C@@H]3O[C@H]1C[C@H](N)[C@@H](O)[C@H](C)O1 | 0.997
